Tested on: U2OS
Assay: Multiplex assay against U2OS
Type: toxicity, cell-based
Conditions: human, 24 h, 10 µM, compound concentration 10 uM, replicate 1
MEASUREMENT_NAME: Population Membrane Permeable-Phenotype (%)
# value in %; strip the unit string

The examples below pair each entry with its known result.
## Task Reported Population Membrane Permeable-Phenotype (%) for "CCCn1c(=O)c2[nH]c(C3CCCC3)nc2n(CCC)c1=O" : what is it?
## Result 7

## Task Now this one: "CC(C)(C)c1ccc(S(=O)(=O)Nc2ccc(Cl)cc2C(=O)c2cc[n+]([O-])cc2)cc1"
## Result 1

## Task Now this one: "C[C@H](NC(=O)c1c(C(F)F)nn(C)c1Oc1cccc(C(F)(F)F)c1)c1ccc(C(=O)O)cc1"
## Result 5

## Task Now this one: "COc1c(C)cc(NC(=O)c2nn(Cc3ccc(F)cc3)c3c2CN(C(=O)c2ccc[nH]2)C[C@]3(C)C(N)=O)cc1C"
## Result 46

## Task Now this one: "O=C(O)Cc1ccccc1Nc1c(Cl)cccc1Cl"
## Result 3

Next:
## Task Reported Population Membrane Permeable-Phenotype (%) for COc1ccc2c(c1)C(C(=O)N(Cc1ccc(N(C)C)cc1)c1ccc(C(C)C)cc1)CCC2.Cl (stereo unspecified) : what is it?
## Result 54

## Task Now this one: "Oc1c(CN2CCN(c3ccccn3)CC2)cc(Cl)c2cccnc12"
## Result 10

## Task Now this one: "C[C@@H]1C[C@H]2[C@@H]3CCC4=CC(=O)C=C[C@]4(C)[C@@]3(F)[C@@H](O)C[C@]2(C)[C@@]1(O)C(=O)CO"
## Result 6

## Task Now this one: "COc1cc(C(=O)N(CCCc2ccccc2)Cc2ccc(CC(=O)O)cc2)cc(OC)c1C"
## Result 7

## Task Now this one: "CC(=O)NCCc1c(Cc2ccccc2)[nH]c2ccccc12"
## Result 6

## Task Now this one: Cc1ccccc1C(=O)Nc1ccc(C(=O)N2CCCC(N(C)C)c3ccccc32)cc1.Cl (stereo unspecified)
## Result 16

Each recorded value in this set is attributed to ChEMBL document CHEMBL5058577.
